Each recorded value in this set is attributed to PubChem BioAssay (NCATS).

Test: Primary qHTS for inhibitors of nuclear receptor binding SET domain protein 2 (NSD2) in an isogenic RCH-ACV NSD2 p.E1099K mutant (9B) (AID 1645876); note: nearly all actives have a fitted effect of over 70% in size
Conditions: RCH-ACV (leukaemia line) NSD2 E1099K (9B) viability, CellTiter-Glo, 72 h; series mostly up to 44.9 µM
Results filed as inconclusive are left out. Calls of active or inactive are those of the source. Calls come from the whole dose curve; as a rule, active = well fitted inhibition curve with a large enough effect; inconclusive = small, poorly fitted or top-dose-only effect; inactive = flat fitted curve, though single readings scatter.
The reply should be one of these categories: label 1 = active, label 0 = inactive

>  <molecule>
COc1ccc(C2CNC(=O)C2)cc1OC1CCCC1 (stereo not drawn)

>  <category>
label 0

$$$$
>  <molecule>
CC12CC3CC(C)(C1)CC(N)(C3)C2

>  <category>
label 0

$$$$
>  <molecule>
Nc1nc2c(ncn2COC(CO)CO)c(=O)[nH]1

>  <category>
label 0

$$$$
>  <molecule>
O=C1N(c2ccccc2)c2ccccc2C1(Cc1ccncc1)Cc1ccncc1

>  <category>
label 0

$$$$
>  <molecule>
O=C(C1CCCCC1)N1CC(=O)N2CCc3ccccc3C2C1 (stereo not drawn)

>  <category>
label 0

$$$$
>  <molecule>
COc1nc(C)nc(Cl)c1NC1=NCCN1

>  <category>
label 0

$$$$
>  <molecule>
Clc1ccc(C(c2ccccc2Cl)C(Cl)Cl)cc1 (stereo not drawn)

>  <category>
label 0

$$$$
>  <molecule>
C[C@H]1c2cccc(O)c2C(O)=C2C(=O)[C@]3(O)C(O)=C(C(N)=O)C(=O)[C@@H](N(C)C)[C@@H]3[C@@H](O)[C@@H]21

>  <category>
label 1

$$$$

Ask: Would you mind telling me which call this test gave O=C(c1ccc(F)cc1)C1CCN(CCn2c(=O)[nH]c3ccccc3c2=O)CC1 ?
Result: label 0

Ask: And what about the molecule CN(C)c1nc(N(C)C)nc(N(C)C)n1 ?
Result: label 0

###

Test system: HeLa
Assay: Primary qHTS to identify gynecologic anti-cancer compounds using libraries of approved drugs and bioactive compounds (AID 1345084); note: nearly all actives have a fitted effect of over 55% in size
Conditions: Gynecologic cancer cell panel viability, ATPlite luminescence, 48 h; series mostly up to 57.5 µM
Inconclusive results are not listed. Active and inactive are the calls of the source. The call rests on the fitted dose curve; in most records, active means well fitted cell-killing curve with a large enough effect; inconclusive means small, poorly fitted or top-dose-only effect, or effect the other way; inactive means flat fitted curve, though single readings scatter.
The reply should be one of these categories: 1 = active, 0 = inactive

Reference set, count: 5
>  <molecule>
CNCCCC12CCC(c3ccccc31)c1ccccc12

>  <target.desc>
HeLa

>  <category>
0

$$$$
>  <molecule>
CN(C)CCOC(c1ccccc1)c1ccccc1

>  <target.desc>
HeLa

>  <category>
0

$$$$
>  <molecule>
Cc1ccccc1N1C(=O)c2cc(S(N)(=O)=O)c(Cl)cc2NC1C (stereo unspecified)

>  <target.desc>
HeLa

>  <category>
0

$$$$
>  <molecule>
O=c1c(O)c(-c2ccc(O)c(O)c2)oc2cc(O)cc(O)c12

>  <target.desc>
HeLa

>  <category>
1

$$$$
>  <molecule>
N[C@@H](Cc1c[nH]c2ccc(O)cc12)C(=O)O

>  <target.desc>
HeLa

>  <category>
0

$$$$

Ask: Would you mind telling me which call this test gave CC(CCc1ccc(O)cc1)NCCc1ccc(O)c(O)c1 (stereo unspecified) ?
Result: 0

###

Test: Quantitative High-Throughput drug screen in 47 multiple myeloma cell lines against the NCATS MIPE library collection: LP1_DSMZ cell viability assay (AID 1918982); note: nearly all actives have a fitted effect of over 35% in size
Conditions: LP1 myeloma viability, CellTiter-Glo ATP luminescence, 48 h; series mostly up to 45.8 µM
Records with an inconclusive call do not appear. Calls of active or inactive are those of the source. The call rests on the fitted dose curve; in most records, active means well fitted cell-killing curve with a large enough effect; inconclusive means small, poorly fitted or top-dose-only effect, or effect the other way; inactive means no such curve, though single readings can be large or run the other way.
The reply should be one of these categories: active, inactive

Reference set, count: 3
>  <compound>
NC(CO)C(=O)NNCc1ccc(O)c(O)c1O (stereo unspecified)

>  <category>
active

$$$$
>  <compound>
CN(C)CCOC(c1ccccc1)c1ccccc1

>  <category>
inactive

$$$$
>  <compound>
COc1cc2nc(N3CCN(C(=O)C4COc5ccccc5O4)CC3)nc(N)c2cc1OC (stereo unspecified)

>  <category>
active

$$$$

Ask: Would you mind telling me which call this test gave CC[C@@]1(O)C(=O)OCc2c1cc1n(c2=O)Cc2cc3c(CN(C)C)c(O)ccc3nc2-1 ?
Result: active

Ask: And what about the compound O=C1N(c2ccccc2)c2ccccc2C1(Cc1ccncc1)Cc1ccncc1 ?
Result: inactive

Ask: And what about the compound CN1CCN(C2=Nc3cc(Cl)ccc3Nc3ccccc32)CC1 ?
Result: inactive

Ask: And what about the compound CC(C(=O)O)c1cccc(C(=O)c2ccccc2)c1 (stereo unspecified) ?
Result: inactive

###

Test: Quantitative High-Throughput drug screen in 47 multiple myeloma cell lines against the NCATS MIPE library collection: VP6_DJ cell viability assay (AID 1919867); note: nearly all actives have a fitted effect of over 40% in size
Settings: ATP luminescence, 48 h; series mostly up to 45.8 µM
Results filed as inconclusive are left out. The source made the active and inactive calls. Calls follow the shape of the dose curve; as a rule, active = well fitted cell-killing curve with a large enough effect; inconclusive = small, poorly fitted or top-dose-only effect, or effect the other way; inactive = no such curve, though single readings can be large or run the other way.
The reply should be one of these categories: TRUE = active, FALSE = inactive

Reference set, count: 5
>  <compound>
CC1COc2c(N3CCN(C)CC3)c(F)cc3c(=O)c(C(=O)O)cn1c23 (configuration not stated)

>  <category>
FALSE

$$$$
>  <compound>
Cc1cn([C@H]2C=C[C@@H](CO)O2)c(=O)[nH]c1=O

>  <category>
FALSE

$$$$
>  <compound>
CCCCc1oc2ccccc2c1C(=O)c1cc(I)c(OCCN(CC)CC)c(I)c1

>  <category>
TRUE

$$$$
>  <compound>
COc1cc2nc(N(C)CCCNC(=O)C3CCCO3)nc(N)c2cc1OC (configuration not stated)

>  <category>
FALSE

$$$$
>  <compound>
O=C1c2c(O)ccc(O)c2C(=O)c2c(NCCNCCO)ccc(NCCNCCO)c21

>  <category>
TRUE

$$$$

Ask: Would you mind telling me which call this test gave COc1ccc(C2CNC(=O)C2)cc1OC1CCCC1 (configuration not stated) ?
Result: TRUE

Ask: And what about the compound CS(=O)(=O)CCNCc1ccc(-c2ccc3ncnc(Nc4ccc(OCc5cccc(F)c5)c(Cl)c4)c3c2)o1 ?
Result: TRUE

Ask: And what about the compound Cn1c(=O)c2c(ncn2C)n(C)c1=O ?
Result: FALSE

###

Quick reference for Potency among some compounds
Test: Drug repurposing screens with cells derived from glioblastoma tumor samples (AID 1345199); note: potency is the fitted concentration of half-maximal effect; nearly all actives have a fitted effect of over 40% in size
Settings: GBM patient neurospheres viability, ATP luminescence, 48 h; tumour line A
Experimental: CD133+ cells were isolated from GBM patient biopsies and cultured as neurospheres. Neurospheres from four patients were used to screen the NCATS pharmaceutical collection (NPC) library of approved drugs and bioactive compounds. […] The neurospheres were incubated with drugs for 48 hours in 1536-well format, then assayed with an ATP content cell viability assay. […]
Records with an inconclusive call do not appear. Activity calls are given as the source filed them. The call rests on the fitted dose curve; in most records, active means well fitted inhibition curve with a large enough effect; inconclusive means small, poorly fitted or top-dose-only effect; inactive means flat fitted curve, though single readings scatter.

Observe how each entry below is paired with its result.
>  <compound>
Clc1ccc(C(c2ccccc2Cl)C(Cl)Cl)cc1 (configuration not stated)

>  <Potency>
22.4 µM (active)

$$$$
>  <compound>
O=C(CCCN1CCC(O)(c2ccc(Cl)cc2)CC1)c1ccc(F)cc1

>  <Potency>
11.2 µM (active)

$$$$
>  <compound>
CN1CCC(=C2c3ccccc3CC(=O)c3sccc32)CC1

>  <Potency>
14.1 µM (active)

$$$$
>  <compound>
Clc1ccc2c(c1)C(N1CCNCC1)=Nc1ccccc1O2

>  <Potency>
14.1 µM (active)

$$$$

Ask: Given the compound CC(COc1ccccc1)N(CCCl)Cc1ccccc1 (configuration not stated) , what is its reported Potency?
Result: 20 µM (active)

Ask: And what about the compound CC(C)NCC(O)COc1ccc(CCOCC2CC2)cc1 (configuration not stated) ?
Result: 17.8 µM (active)

Ask: And what about the compound OCCN1CCN(CCCN2c3ccccc3Sc3ccc(C(F)(F)F)cc32)CC1 ?
Result: 1.26 µM (active)

Ask: And what about the compound CN(C)CCCN1c2ccccc2CCc2ccc(Cl)cc21 ?
Result: 5.01 µM (active)

Ask: And what about the compound Clc1ccccc1C(c1ccccc1)(c1ccccc1)n1ccnc1 ?
Result: 11.2 µM (active)

Ask: And what about the compound Nc1c2c(nc3ccccc13)CCCC2 ?
Result: 20 µM (active)

Ask: And what about the compound CCCNCC(O)COc1ccccc1C(=O)CCc1ccccc1 (configuration not stated) ?
Result: 7.08 µM (active)

Ask: And what about the compound CC[C@@]1(O)C(=O)OCc2c1cc1n(c2=O)Cc2cc3c(CN(C)C)c(O)ccc3nc2-1 ?
Result: 0.891 µM (active)

Ask: And what about the compound O=C(c1ccc(F)cc1)C1CCN(CCn2c(=O)[nH]c3ccccc3c2=O)CC1 ?
Result: 3.98 µM (active)

Ask: And what about the compound O=C1c2c(O)ccc(O)c2C(=O)c2c(NCCNCCO)ccc(NCCNCCO)c21 ?
Result: 3.98 µM (active)

Ask: And what about the compound CNCCCC12CCC(c3ccccc31)c1ccccc12 ?
Result: 7.94 µM (active)

Ask: And what about the compound CN(C)CCC=C1c2ccccc2C=Cc2ccccc21 ?
Result: 14.1 µM (active)

Ask: And what about the compound CN1CCN2c3ccccc3Cc3ccccc3C2C1 (configuration not stated) ?
Result: 11.2 µM (active)
